test: antimalarial activity against Dd2 strain (AID 2302);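 also: 0% = DMSO untreated growth and 100% = chloroquine plus artemisinin killed control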; conditions: P. falciparum Dd2 in RBCs, LDH growth readout, 72 h; at 2 µM; hits give high values
Parameter Measured: growth inhibition (%)

INSERT INTO results (molecule, measurement) VALUES
  ('CN(C(=O)c1ccccc1)[C@@H]1c2cc(C#N)ccc2OC(C)(C)[C@H]1O', 4),
  ('Brc1ccc(Nc2nc3ccccc3nc2Nc2ccc(Br)cc2)cc1', 100),
  ('COc1ccc(CNC2Cc3ccccc3C2)cc1-c1ccc(S(=O)(=O)NCCc2ccccn2)s1', 22),
  ('O=C(CCc1cnc[nH]1)Nc1ccc(-c2cccc(-c3nc4ccccc4[nH]3)c2)cc1', 42),
  ('Cc1cc(N[C@@H](CC(C)C)C(=O)NCCCOC(C)C)nc(NCCc2ccc(F)cc2)n1', 19),
  ('Cc1cc(C)c(NC(=O)NC2CCN(CCCCCNC(=O)/C=C/c3ccc(Cl)c(Cl)c3)C2)c(C)c1 (stereo not drawn)', 48),
  ('O=C(/C=C/c1ccc(Cl)c(Cl)c1)NCCCCCN1CCC(CCCNC(=O)Nc2ccc(C(F)(F)F)cc2)CC1', 19),
  ('CC1(C)CN2CCCC2c2cc(NC(=O)/C=C/c3ccccc3Cl)ccc21 (stereo not drawn)', 76),
  ('Cc1cc(CN2CC[C@H](NC(=O)c3ccc(Cl)c(Cl)c3)C2)ccc1OC1CCN(Cc2ccccc2)CC1', 29),
  ('COC(=O)c1sc(-c2ccc(Cl)cc2)cc1N(CCCN1CCC(N2CCCCC2)CC1)S(=O)(=O)c1ccc(C)cc1', 86),
  ('CC(C)(CNCc1ccc(C(F)(F)F)cc1)c1nc(-c2ccc(Cl)c(O)c2)c(-c2ccncc2)[nH]1', 98),
  ('CNC(=O)c1cc(Nc2nnc(-c3ccc(C)c(S(=O)(=O)NC4CCCCC4)c3)c3ccccc23)ccc1OC', 61),
  ('COCC(=O)N(Cc1ccccc1-c1cccc(CNCc2ccc3c(c2)OCO3)c1)C1CCN(Cc2ccccc2)CC1', 72),
  ('COc1ccc(Cl)cc1NC(=O)Nc1ccc2c(c1)CCN(C1CCC1)CC2', 19),
  ('COc1ccc(OCC(=O)Nc2cc(-c3nc4ccccc4[nH]3)ccc2Cl)cc1', 33),
  ('CC(=O)N(C)c1cccc(C(=O)Nc2ccc(-c3cccc(-c4nc5ccc(C(F)(F)F)cc5[nH]4)c3)cc2)c1', 10),
  ('CCOc1ccc(C(=O)Nc2cc(Cl)ccc2O)cc1Cl', 84),
  ('CN1CCN(c2ccc(-c3cccc(NC(=O)c4cccc([N+](=O)[O-])c4)c3)nn2)CC1', 35),
  ('CCCCc1ccc(NC(=O)Nc2ccc3c(c2)CCNCC3)cc1', 43),
  ('O=S(=O)(Nc1ccc(CCN2CCC(N3CCCCC3)CC2)cc1)c1cccc(C(F)(F)F)c1', 15),
  ('COc1ccc(CNCc2ccsc2)cc1-c1ccc(S(=O)(=O)NCCN2CCCC2)c(C)c1', 43),
  ('Nc1ncc(-c2ccsc2)cc1-c1nc2ccccc2[nH]1', 8),
  ('COCCNCc1cccc(-c2ccc3nccc(Nc4cc(O)ccc4C)c3c2)c1', 92),
  ('CC(C)Cn1cc(C2CCN(CCN3CCC(CNC(=O)c4ccc(-c5ccc(C#N)cc5)cc4)CC3)CC2)c2ccccc21', 98),
  ('O=C(NC1CCN(Cc2ccccc2)CC1)c1ccc(-c2nc3cc(Cl)c(F)cc3[nH]2)cc1', 100),
  ('COc1ccc(O)c(Cc2cnc3nc(N)nc(N)c3c2C)c1', 74),
  ('c1cc(CNCc2ccc3c(c2)OCO3)cc(-c2cccc(CNc3ccc4ncccc4c3)c2)c1', 27),
  ('CN1CCN(CC(=O)Nc2ccc(-c3ccc(-c4nc5ccc(C(F)(F)F)cc5[nH]4)s3)cc2)CC1', 73),
  ('NC(=O)c1cccc(C(=O)Nc2ccc(-c3cccc(-c4nc5ccc(C(F)(F)F)cc5[nH]4)c3)cc2)c1', 86),
  ('c1ccc(-c2cccc(-c3ccccn3)n2)nc1', 99),
  ('COc1ccccc1CCN1CCC(CN(C)Cc2ccc(O)c(Cl)c2)CC1', 52),
  ('O=C(Nc1ccc2c(c1)CCN2C1CCN(Cc2ccc(O)cc2)C1)c1ccco1 (stereo not drawn)', 63),
  ('COc1ccc2nccc([C@@H](O)CN3CCC(NCCOc4ccccc4[N+](=O)[O-])CC3)c2c1', 98),
  ('CC(Cc1ccc(OCC(=O)NCC2CCN(CCc3cccc(Cl)c3)CC2)cc1)NCCc1cccc(Cl)c1 (stereo not drawn)', 85),
  ('O=C(/C=C/c1ccc(Cl)c(Cl)c1)N1CCC(CN2CCC(Cc3nc4ccccc4[nH]3)CC2)CC1', 95),
  ('O=C(Nc1ccc([N+](=O)[O-])cc1)Nc1cc(OCC(F)(F)F)cc(OCC(F)(F)F)c1', 100),
  ('O=C(Nc1ccc2c(c1)OCCO2)c1cc(-c2cccnc2)nc2ccc(Cl)cc12', 27),
  ('Cc1[nH]c(C)c(-c2ccc(Cl)cc2Cl)c(=O)c1Br', 57);
